assay.system: CDK6/Cyclin D3 (Homo sapiens (Human), UniProt Q00534)
Sequence (Q00534 whole entry): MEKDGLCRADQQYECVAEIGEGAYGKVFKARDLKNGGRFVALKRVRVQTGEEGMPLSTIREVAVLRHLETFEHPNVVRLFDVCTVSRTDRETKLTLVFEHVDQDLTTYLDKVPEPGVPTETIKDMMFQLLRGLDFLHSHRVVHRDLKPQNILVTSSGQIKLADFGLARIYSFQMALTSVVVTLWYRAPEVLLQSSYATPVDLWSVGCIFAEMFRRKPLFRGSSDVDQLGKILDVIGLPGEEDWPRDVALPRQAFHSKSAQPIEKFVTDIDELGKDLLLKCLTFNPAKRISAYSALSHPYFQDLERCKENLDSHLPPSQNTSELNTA
Sequence (P30281 whole entry partner): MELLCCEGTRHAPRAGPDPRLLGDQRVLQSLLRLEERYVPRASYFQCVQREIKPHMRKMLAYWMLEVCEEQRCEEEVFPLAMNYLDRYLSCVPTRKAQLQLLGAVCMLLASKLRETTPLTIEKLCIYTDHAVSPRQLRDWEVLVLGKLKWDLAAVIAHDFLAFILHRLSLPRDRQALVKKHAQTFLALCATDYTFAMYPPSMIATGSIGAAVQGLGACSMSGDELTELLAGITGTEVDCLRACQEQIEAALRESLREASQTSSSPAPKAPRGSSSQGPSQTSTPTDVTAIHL
measurement.protocol: TR-FRET kinase inhibition assay, CDK6/Cyclin D3
Assay type: biochemical
protocol.conditions: 1 mM ATP, 0.15 μM Rb (Ser780)-biotin substrate, read-out: CDK6D3 IC50
metric: IC50 (nM)

Cc1c(CN[C@H]2CCOC2)n(C(C)C)c2cc(-c3nc(N[C@@H]4CCOC[C@H]4O)ncc3F)ccc2c1=O [Example 113] : 663
Cc1c(CN2CC[C@](C)(O)C2)n(C(C)C)c2cc(-c3nc(N[C@@H]4CCOC[C@H]4O)ncc3F)ccc2c1=O [Example 125] : 360
CC(C)n1c(CN2CCC3(CCCO3)C2)cc(=O)c2ccc(-c3nc(N[C@@H]4CCOC[C@H]4O)ncc3F)cc21 (stereo partly shown) [Example 91] : 1060

A = CC(C)n1c(CN2CCOCC23CC3)cc(=O)c2ccc(-c3nc(N[C@@H]4CCOC[C@H]4O)ncc3F)cc21 [Example 73]
B = CC(C)n1c(CN2CCS(=O)(=O)CC2)cc(=O)c2ccc(-c3nc(N[C@@H]4CCOC[C@H]4O)ncc3F)cc21 [Example 83]
C = Cc1c(CN[C@@H]2CCOC2)n(C(C)C)c2cc(-c3nc(N[C@@H]4CCOC[C@H]4O)ncc3F)ccc2c1=O [Example 112]
D = Cc1c(C2CC2)c(=O)c2ccc(-c3nc(N[C@@H]4CCOC[C@H]4O)ncc3F)cc2n1C(C)C [Example 40]
E = CC(C)n1c(CNc2cnn(C)c2)cc(=O)c2ccc(-c3nc(N[C@@H]4CCOC[C@H]4O)ncc3F)cc21 [Example 78]
QUERY: Put the compounds in ascending order of IC50. Answer format: the labels, in the requested order.
RESULT: D, A, E, C, B
(D: 150 nM, A: 225 nM, E: 352 nM, C: 615 nM, B: 928 nM)

I = CC(C)n1c(CNC2CC2)cc(=O)c2ccc(-c3nc(N[C@@H]4CCOC[C@H]4O)ncc3F)cc21 [Example 48]
II = CC(C)n1c(CN2CCCOCC2)cc(=O)c2ccc(-c3nc(N[C@@H]4CCOC[C@H]4O)ncc3F)cc21 [Example 79]
III = CC(C)n1c(CN2CCC[C@@H](O)C2)cc(=O)c2ccc(-c3nc(N[C@@H]4CCOC[C@H]4O)ncc3F)cc21 [Example 57]
IV = CC(C)n1c(CN2C[C@H]3COC[C@H]3C2)cc(=O)c2ccc(-c3nc(N[C@@H]4CCOC[C@H]4O)ncc3F)cc21 [Example 41]
V = CC(C)n1c(CN(C)C)cc(=O)c2ccc(-c3nc(N[C@@H]4CCOC[C@H]4O)ncc3F)cc21 [Example 20]
QUERY: Put the compounds in ascending order of IC50. Answer format: the labels, in the requested order.
RESULT: I, III, V, II, IV

---

assay.system: CDK6/Cyclin D3 (Homo sapiens (Human), UniProt Q00534)
measurement.protocol: TR-FRET kinase inhibition assay, CDK6/Cyclin D3
protocol.conditions: 1 mM ATP, 0.15 μM Rb (Ser780)-biotin substrate, read-out: CDK6D3 IC50
pIC50: −log10 of the molar value.
metric: pIC50

CC(C)n1c(CNC(C)(C)C)cc(=O)c2ccc(-c3nc(N[C@@H]4CCOC[C@H]4O)ncc3F)cc21 : 6.28

P = CC(C)n1c(CN2[C@H](C)COC[C@H]2C)cc(=O)c2ccc(-c3nc(N[C@@H]4CCOC[C@H]4O)ncc3F)cc21
Q = CNC(=O)c1cc(=O)c2ccc(-c3nc(N[C@@H]4CCOC[C@H]4O)ncc3F)cc2n1C(C)C
R = CC(C)n1cc(Cl)c(=O)c2ccc(-c3nc(N[C@@H]4CCOC[C@H]4O)ncc3F)cc21
QUERY: Put the molecules in ascending order of pIC50. Answer format: the labels, in the requested order.
RESULT: R, Q, P

---

assay.system: CDK6/Cyclin D3 (Homo sapiens (Human))
measurement.protocol: TR-FRET kinase inhibition assay, CDK6/Cyclin D3
protocol.conditions: 1 mM ATP, 0.15 μM Rb (Ser780)-biotin substrate, read-out: CDK6D3 IC50
pIC50: −log10 of the molar value.
metric: pIC50

CC(C)n1c(CN2C3CCCC2CC(O)C3)cc(=O)c2ccc(-c3nc(N[C@@H]4CCOC[C@H]4O)ncc3F)cc21 (stereo partly shown) [Example 90] : 6.60

1 = Cc1c(CN2CCC[C@H](O)C2)n(C(C)C)c2cc(-c3nc(N[C@@H]4CCOC[C@H]4O)ncc3F)ccc2c1=O [Example 123]
2 = CC(C)n1c(CN2CCC(C#N)CC2)cc(=O)c2ccc(-c3nc(N[C@@H]4CCOC[C@H]4O)ncc3F)cc21 [Example 37]
QUERY: In the pair 1 and 2 , the larger recorded pIC50 belongs to which? API: response body contains the label of the selected item.
RESULT: 1

---

assay.system: CDK4/Cyclin D1 (Homo sapiens (Human))
Sequence (P11802 whole entry): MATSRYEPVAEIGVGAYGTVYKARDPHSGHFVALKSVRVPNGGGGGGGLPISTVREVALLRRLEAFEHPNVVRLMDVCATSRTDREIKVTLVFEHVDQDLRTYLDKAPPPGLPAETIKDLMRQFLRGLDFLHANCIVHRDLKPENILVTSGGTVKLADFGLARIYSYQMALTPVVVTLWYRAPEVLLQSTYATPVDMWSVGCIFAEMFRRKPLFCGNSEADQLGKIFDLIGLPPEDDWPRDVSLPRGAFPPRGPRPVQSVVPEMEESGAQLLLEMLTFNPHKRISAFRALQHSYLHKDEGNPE
Sequence (P24385 whole entry partner): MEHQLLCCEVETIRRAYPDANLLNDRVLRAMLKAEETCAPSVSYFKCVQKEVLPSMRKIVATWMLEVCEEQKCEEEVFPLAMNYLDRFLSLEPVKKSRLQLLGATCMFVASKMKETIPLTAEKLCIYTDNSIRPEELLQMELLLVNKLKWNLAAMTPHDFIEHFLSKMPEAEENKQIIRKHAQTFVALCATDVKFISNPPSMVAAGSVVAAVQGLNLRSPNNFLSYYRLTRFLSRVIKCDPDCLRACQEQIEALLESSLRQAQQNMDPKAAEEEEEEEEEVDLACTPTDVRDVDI
measurement.protocol: TR-FRET kinase inhibition assay, CDK4/Cyclin D1
protocol.conditions: 1 mM ATP, 0.15 μM Rb (Ser780)-biotin substrate, read-out: CDK4D1 IC50
metric: IC50 (nM)

// below: answered compounds
CC(C)n1c(CN2CCCC(F)(F)C2)cc(=O)c2ccc(-c3nc(N[C@@H]4CCOC[C@H]4O)ncc3F)cc21 : 11
CC(C)n1c(CN2CCC(O)CC2)cc(=O)c2ccc(-c3nc(N[C@@H]4CCOC[C@H]4O)ncc3F)cc21 : 24
CC(C)n1c(CN2CC[C@H](O)C2)cc(=O)c2ccc(-c3nc(N[C@@H]4CCOC[C@H]4O)ncc3F)cc21 : 21
CC(C)n1c(CN2C3COCC2C3)cc(=O)c2ccc(-c3nc(N[C@@H]4CCOC[C@H]4O)ncc3F)cc21 : 34
Cc1cc(=O)c2ccc(-c3nc(N[C@@H]4CCOC[C@H]4O)ncc3Cl)cc2n1C(C)C : 28
CC(C)n1c(CN2C[C@@H](O)[C@H](F)C2)cc(=O)c2ccc(-c3nc(N[C@@H]4CCOC[C@H]4O)ncc3F)cc21 : 12
Cc1c(CN[C@H]2C[C@H](F)C2)n(C(C)C)c2cc(-c3nc(N[C@@H]4CCOC[C@H]4O)ncc3F)ccc2c1=O : 16
CNC(=O)c1c(C)c(=O)c2ccc(-c3nc(N[C@@H]4CCOC[C@H]4O)ncc3F)cc2n1C(C)C : 24
CC(C)n1c(CN2CCC[C@@]3(CCNC3=O)C2)cc(=O)c2ccc(-c3nc(N[C@@H]4CCOC[C@H]4O)ncc3F)cc21 : 24
CC(C)n1c(CN2CCC(F)(F)CC2)cc(=O)c2ccc(-c3nc(N[C@@H]4CCOC[C@H]4O)ncc3F)cc21 : 13

A = CNC(=O)c1cc(=O)c2c(F)cc(-c3nc(N[C@@H]4CCOC[C@H]4O)ncc3F)cc2n1C(C)C
B = CNC(=O)c1cc(=O)c2c(Cl)cc(-c3nc(N[C@@H]4CCOC[C@H]4O)ncc3F)cc2n1C(C)C
QUERY: In the pair A and B , the larger recorded IC50 belongs to which? API: response body contains the label of the selected item.
RESULT: B

---

assay.system: CDK6/Cyclin D3 (Homo sapiens (Human))
measurement.protocol: TR-FRET kinase inhibition assay, CDK6/Cyclin D3
protocol.conditions: 1 mM ATP, 0.15 μM Rb (Ser780)-biotin substrate, read-out: CDK6D3 IC50
metric: IC50 (nM)

// below: answered compounds
CC(C)n1c(C(=O)NCC(C)(C)O)cc(=O)c2ccc(-c3nc(N[C@@H]4CCOC[C@H]4O)ncc3Cl)cc21 [Example 22] : 931
CNC(=O)c1c(C)c(=O)c2ccc(-c3nc(N[C@@H]4CCOC[C@H]4O)ncc3F)cc2n1C(C)C [Example 24] : 432
CC(C)n1c(CN2CC[C@](C)(O)C2)cc(=O)c2ccc(-c3nc(N[C@@H]4CCOC[C@H]4O)ncc3F)cc21 [Example 61] : 1170
CNC(=O)c1cc(=O)c2ccc(-c3nc(N[C@@H]4CCOC[C@H]4O)ncc3Cl)cc2n1C(C)C [Example 14] : 714
CC(C)n1c(CN2CCC[C@]3(CCN(C)C3=O)C2)cc(=O)c2ccc(-c3nc(N[C@@H]4CCOC[C@H]4O)ncc3F)cc21 [Example 52] : 467

A = CC(=O)c1cn(C(C)C)c2cc(-c3nc(N[C@@H]4CCOC[C@H]4O)ncc3F)ccc2c1=O [Example 4]
B = Cc1cc(=O)c2ccc(-c3nc(N[C@@H]4CCOC[C@H]4O)ncc3F)cc2n1C(C)C [Example 6]
C = CC(C)n1c(CN2CC[C@@H](O)C2)cc(=O)c2ccc(-c3nc(N[C@@H]4CCOC[C@H]4O)ncc3F)cc21 [Example 87]
D = CC(C)n1c(CN2CCOCC2)cc(=O)c2ccc(-c3nc(N[C@@H]4CCOC[C@H]4O)ncc3F)cc21 [Example 25]
QUERY: Put the compounds in ascending order of IC50. Answer format: the labels, in the requested order.
RESULT: D, B, C, A

A = CC(C)n1c(CN2CC(F)C2)cc(=O)c2ccc(-c3nc(N[C@@H]4CCOC[C@H]4O)ncc3F)cc21 [Example 74]
B = CC(C)n1c(CN2CCC[C@@H](F)C2)cc(=O)c2ccc(-c3nc(N[C@@H]4CCOC[C@H]4O)ncc3F)cc21 [Example 98]
QUERY: Could you determine which record has the numerically smaller IC50? Candidates: A and B API: response body contains the label of the selected item.
RESULT: B
(B: 370 nM, A: 810 nM)

I = CC(C)n1c(CN2CC[C@H](O)C2)cc(=O)c2ccc(-c3nc(N[C@@H]4CCOC[C@H]4O)ncc3F)cc21 [Example 86]
II = CC(C)n1c(CN2CC[C@@H](F)C2)cc(=O)c2ccc(-c3nc(N[C@@H]4CCOC[C@H]4O)ncc3F)cc21 [Example 49]
QUERY: In the pair I and II , the larger recorded IC50 belongs to which? API: response body contains the label of the selected item.
RESULT: I
(I: 777 nM, II: 299 nM)
